Tested on: Pseudomonas aeruginosa PR3 (high-level, efflux-mediated, pan-aminoglycoside resistance)
Experiment: MIC against Pseudomonas aeruginosa clinical isolate PR3
Assay type: cell-based
Details: Pseudomonas aeruginosa, read-out: MIC PR3
Source text: Pseudomonas aeruginosa is a prominent nosocomial pathogen. In addition to intrinsic antibiotic resistance to several antibiotics, Pseudomonas has acquired multiple additional mechanisms of resistance. As a result, therapeutic options for the treatment of infections caused by Pseudomonas aeruginosa are limited. We acquired clinical isolates of Pseudomonas aeruginosa (Micromyx LLC, Kalamazoo, Mich.), and used this panel to test compounds for Pseudomonicidal activity. […]
Recorded MIC for the following molecules
outcome.measure: MIC

>>> meas_value("NC[C@H]1O[C@H](O[C@H]2[C@H](O)[C@@H](O[C@H]3O[C@H](CO)[C@@H](O)[C@H](N)[C@H]3O)[C@H](N)C[C@@H]2N)[C@H](N)C[C@@H]1O")
"> 64 µg/mL"
>>> meas_value("CN[C@@H]1[C@H](O)[C@H](NC)[C@H]2O[C@@]3(O)C(=O)C[C@@H](C)O[C@H]3O[C@@H]2[C@H]1O")
"> 64 µg/mL"
>>> meas_value("NC[C@@H]1CC[C@@H](N)[C@@H](O[C@H]2[C@H](O)[C@@H](O[C@H]3O[C@H](CO)[C@@H](O)[C@H](N)[C@H]3O)[C@H](N)C[C@@H]2N)O1")
"> 64 µg/mL"

Cited source for all entries: patent US8586552B2
